Listing of entries alongside the reported Content of combined PIBCA and HP CD particles.
assay: Titration of progesterone/steroid content of nanoparticles by HPLC; type: physicochemical; conditions: average of three preparations
Write the figure, then the unit, nothing else.

Content of combined PIBCA and HP CD particles lookup needed for C[C@]12CCC(=O)C=C1CC[C@@H]1[C@@H]2[C@@H](O)C[C@@]2(C)[C@H]1CC[C@]2(O)C(=O)CO [Hydrocortisone, hydrocortisone] , thanks.
42.21 mmol/g

Content of combined PIBCA and HP CD particles lookup needed for CC(=O)S[C@@H]1CC2=CC(=O)CC[C@]2(C)[C@H]2CC[C@@]3(C)[C@@H](CC[C@@]34CCC(=O)O4)[C@H]12 [Spironolactone, spironolactone] , thanks.
127.23 mmol/g

Content of combined PIBCA and HP CD particles lookup needed for C[C@]12CC[C@H]3[C@@H](CCC4=CC(=O)CC[C@@]43C)[C@@H]1CC[C@@H]2O [Testosterone, testosterone] , thanks.
67.6 mmol/g

Content of combined PIBCA and HP CD particles lookup needed for C#C[C@]1(O)CC[C@H]2[C@@H]3CCC4=Cc5oncc5C[C@]4(C)[C@H]3CC[C@@]21C [Danazol, danazol] , thanks.
33.19 mmol/g

Values from patent US6881421B1
